Test system: MS2 coat protein
Experiment: apparent KD of MS2 coat protein; designed switch direction (-1 OFF switch, 1 ON switch): 1; higher = weaker reporter binding
Details: input ligand: FMN 200 uM
Assay Readout: apparent KD of MS2 coat protein (nM)
Numbers only, in nM.

monomer_sequence="GGUAAGAAUUAAGGAUAUCGAGUACAUAUGUUUAACAUGAGGAUCACCCAUGUGGGUUGCGGUAUCGAGAAGGUAAAUUACAAG [Mat - same State NG 2 - JL mod - D62] (Eterna round: R96, puzzle: Same State NG 2)" assay_readout="apparent KD of MS2 coat protein" readout_number=40.7
monomer_sequence="GAAAAACAUGAGGAUCACCCAUGUGAGAAUAUGGGAGGAUAUACGAGGACGAGAGUCAAGGUAGAAGGCCUAAAAG [Garnet 75] (Eterna round: R96, puzzle: Same State 1)" assay_readout="apparent KD of MS2 coat protein" readout_number=45.3
monomer_sequence="GCUAGGAUAUGAAGAGGAUCACCCUUUAGAAGGAGCAUUAGCUAGGAUAUGAAGAGGAUCACCCUUUAGAAGGAGCACUACUCU [pwkr ssNG3 DX 2xF5 +2xFMN.7] (Eterna round: R96, puzzle: Same State NG 3)" assay_readout="apparent KD of MS2 coat protein" readout_number=531

Okay, next one:
Prompt line: Query apparent KD of MS2 coat protein for AGUCCAGCCUAAGCUGGACAAAAGCAUGUACAUGAGGAUCACCCAUGUUCAUGUACAAGCUUUUUGCAAGUCAAAAU [Mat - hsa-mir-208a - Mod of JL - 79] (Eterna round: R96, puzzle: Sensor for hsa-mir-208a)
Response line: 837
